system: SNU-C4 xenografted nude mice; experiment: Biodistribution study in SNU-C4 xenografted nude mice after intravenous injection; type: in vivo, mouse; settings: bone, 1 hr after intravenous injection
Listed here are compounds together with their documented % ID/g Bone.
Respond with the bare value in % ID/g.

The cases that follow already have their % ID/g Bone on record.
compound	% ID/g Bone [% ID/g]
O=C([O-])CN1CCN(CC(=O)[O-])CCN(CC(=O)[O-])CC1.[68Ga+3] [^68Ga-NOTA, reference compound]	0.15
O=C([O-])CN1CCNCCN(CC(=O)[O-])CCN(CC(=O)[O-])CC1.[68Ga+3] [^68Ga-DO3A, reference compound]	0.38
O=C([O-])CN1CCN(CC(=O)[O-])CCN(CC(=O)O)CCN(CC(=O)[O-])CC1.[68Ga+3] [^68Ga-DOTA, reference compound]	0.33

// switching to the query compound
% ID/g Bone for NC(CNC(=O)CN1CCN(CC(=O)[O-])CCN(CC(=O)[O-])CC1)C(=O)[O-].[68Ga+3] (centres unmarked) [^68Ga-NOTA-ala] is 0.47
